Give IC50 for every item shown.
target: benzodiazepine receptor; construct: IC50; other: FLB as labeled ligand, 7.3 nM; Bmax; other: saturation with FLB; other: [3H]flunitrazepam as labeled ligand, 2.2 nM; other: FLB assay concentration 7.3 nM; recov; experiment: Fluorescent receptor assay for benzodiazepines, calibration curves with FLB as labeled ligand; format: binding, calf; conditions: 7.3 nM
Express it in nM; write the number only.

**Q:** Return reported IC50; argument: O=C1Nc2ccc(Cl)cc2C(c2ccccc2Cl)=NC1O (centres unmarked)
**A:** 7.2

**Q:** # iterate: CN1C(=O)CN=C(c2ccccc2)c2cc(Cl)ccc21
**A:** 41
